B1: COUP transcription factor 1, residues 83 to 159; numbered along this chain, P10589 (parent)
chain: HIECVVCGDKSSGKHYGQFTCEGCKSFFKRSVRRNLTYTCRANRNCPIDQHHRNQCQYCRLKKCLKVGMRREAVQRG

# Variants of: B1
# ASSAY TEXT: abundance fitness (aPCA) (normalised: wild type 0, dead -1); higher = more abundant; growth selection in yeast, the domain comes from the species named
# CONDITION DESCRIPTION: Homo sapiens
PROPERTY NAME: abundance fitness

INSERT INTO results (variant_notation, observed_result) VALUES
  ('Q57E', 0.183),
  ('H52K', -0.035),
  ('E72F', -0.316),
  ('H51P', -0.138),
  ('V67M', 0.099),
  ('C56F', -0.506),
  ('R30S', -0.157),
  ('N43H', -0.319),
  ('R60A', -0.088),
  ('H52E', 0.08),
  ('Q18K', -0.031),
  ('N54F', -0.222),
  ('M69S', -0.783),
  ('Y58R', -0.458),
  ('C40I', -0.496),
  ('V74C', -0.032),
  ('E22L', -0.089),
  ('I48F', -0.11),
  ('K29L', -0.186),
  ('C56K', -0.926),
  ('C21D', -1.03),
  ('G68V', -0.671),
  ('Q55Y', -0.039),
  ('V67E', 0.013),
  ('Q18N', -0.345),
  ('C64M', -0.059),
  ('N43G', 0.051),
  ('V32H', 0.19),
  ('L36V', 0.007),
  ('Q50D', 0.03),
  ('A73R', -0.275),
  ('K63Q', -0.139),
  ('L61Q', -0.346),
  ('D49L', -0.122),
  ('F28E', -0.539),
  ('D49F', 0.017),
  ('V67Y', -0.18),
  ('G17E', -0.156),
  ('E22I', -0.495),
  ('S26G', 0.238),
  ('Y58N', -0.548),
  ('V32N', -0.196),
  ('K25L', -0.031),
  ('R53E', 0.018),
  ('F28C', -0.757);
